- assayName: In vivo pharmacokinetics in beagle dogs after single administration
- cond: male, beagle, dog, plasma, 10 mg/kg; dogs, 10 mpk oral administration
measure: AUC(0-inf) (µM·h)

compound="COCCN1C[C@@H](n2ccc(F)c2)[C@H](NC(=O)Nc2c(C)c(-c3cnc(C4(F)COC4)nc3)nn2-c2ccccc2)C1 [Compound 7]" assayvalue=7.69

====

- assayName: In vivo pharmacokinetics in rats after single administration
- cond: male, Sprague-Dawley, rat, plasma, 10 mg/kg, 10 mpk oral administration
measure: bioavailability (%)

molecule="COCCN1C[C@@H](n2ccc(F)c2)[C@H](NC(=O)Nc2c(C)c(-c3cnc(C4(F)COC4)nc3)nn2-c2ccccc2)C1 [Compound 7]" assayvalue=24.8
